src = ChEMBL document CHEMBL1136765

Molecular target: Alpha-1D adrenergic receptor (Rattus norvegicus) (UniProt P23944)
Sequence (whole entry): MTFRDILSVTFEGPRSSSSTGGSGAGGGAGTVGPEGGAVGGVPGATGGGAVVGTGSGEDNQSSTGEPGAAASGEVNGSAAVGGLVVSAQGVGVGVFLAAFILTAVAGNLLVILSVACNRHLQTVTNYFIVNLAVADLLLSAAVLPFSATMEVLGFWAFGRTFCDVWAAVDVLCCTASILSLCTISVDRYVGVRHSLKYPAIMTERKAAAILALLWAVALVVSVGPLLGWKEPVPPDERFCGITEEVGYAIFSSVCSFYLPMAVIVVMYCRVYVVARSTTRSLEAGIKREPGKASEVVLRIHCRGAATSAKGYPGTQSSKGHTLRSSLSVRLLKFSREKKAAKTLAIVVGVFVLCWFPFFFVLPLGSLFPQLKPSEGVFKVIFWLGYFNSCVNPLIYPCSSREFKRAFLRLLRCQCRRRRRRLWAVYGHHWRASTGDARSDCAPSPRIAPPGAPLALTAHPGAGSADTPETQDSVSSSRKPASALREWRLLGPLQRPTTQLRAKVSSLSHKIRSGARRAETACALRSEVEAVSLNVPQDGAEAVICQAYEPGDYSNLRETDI
Experiment: Inhibition of (-)-noradrenaline-induced contraction of rat thoracic aorta (Alpha-1D adrenergic receptor)
Format: functional, tissue-based
molecules and their reported pKb
ENDPOINT LABEL: pKb

- MOLECULE: "O=C(O)C(=O)O.c1ccc(OCCNCC2CO[C@@H](c3ccccc3)O2)cc1 (stereo partly specified)"
  ENDPOINT LABEL: "pKb"
  OBS VALUE: 6.94
- MOLECULE: "COc1cccc(OC)c1OCCNCC1CO[C@@](C)(c2ccccc2)O1.O=C(O)C(=O)O (stereo partly specified)"
  ENDPOINT LABEL: "pKb"
  OBS VALUE: 6.69
- MOLECULE: "COc1cccc(OC)c1OCCNCC1CO[C@H](Cc2ccccc2)O1.O=C(O)C(=O)O (stereo partly specified)"
  ENDPOINT LABEL: "pKb"
  OBS VALUE: 5.13
- MOLECULE: "COc1cccc(OC)c1OCCNCC1CO[C@@H](C(c2ccccc2)c2ccccc2)O1.O=C(O)C(=O)O (stereo partly specified)"
  ENDPOINT LABEL: "pKb"
  OBS VALUE: 6.88
- MOLECULE: "COc1cccc(OC)c1OCCNCC1CO[C@@H](c2cccc3ccccc23)O1.O=C(O)C(=O)O (stereo partly specified)"
  ENDPOINT LABEL: "pKb"
  OBS VALUE: 7.07
- MOLECULE: "O=C(O)C(=O)O.c1ccc(OCCNCC2COC3(CCCCC3)O2)cc1 (stereo unspecified)"
  ENDPOINT LABEL: "pKb"
  OBS VALUE: 6.54
- MOLECULE: "C[N+](C)(CCOc1ccccc1)CC1COC(c2ccccc2)(c2ccccc2)O1.O=C([O-])C(=O)O (stereo unspecified)"
  ENDPOINT LABEL: "pKb"
  OBS VALUE: 6.19
- MOLECULE: "COc1ccccc1N1CCN(CCN2C(=O)CC3(CCCC3)CC2=O)CC1"
  ENDPOINT LABEL: "pKb"
  OBS VALUE: 8.4
- MOLECULE: "COc1cccc(OC)c1OCCNCC1CO[C@@H](c2ccccc2)O1.O=C(O)C(=O)O (stereo partly specified)"
  ENDPOINT LABEL: "pKb"
  OBS VALUE: 6.18
- MOLECULE: "COc1cccc(OC)c1OCCNCC1COC(c2ccc3ccccc3c2)O1.O=C(O)C(=O)O (stereo unspecified)"
  ENDPOINT LABEL: "pKb"
  OBS VALUE: 6.65
- MOLECULE: "CN(CCOc1ccccc1)CC1COC(c2ccccc2)(c2ccccc2)O1.O=C(O)C(=O)O (stereo unspecified)"
  ENDPOINT LABEL: "pKb"
  OBS VALUE: 6.06
- MOLECULE: "COc1cccc(OC)c1OCCNCC1CO[C@H](c2cccc3ccccc23)O1.O=C(O)C(=O)O (stereo partly specified)"
  ENDPOINT LABEL: "pKb"
  OBS VALUE: 7.32
- MOLECULE: "COc1cccc(OC)c1OCCNCC1CO[C@@H](Cc2ccccc2)O1.O=C(O)C(=O)O (stereo partly specified)"
  ENDPOINT LABEL: "pKb"
  OBS VALUE: 6
- MOLECULE: "COc1cccc(OC)c1OCCNCC1CO[C@H](C(c2ccccc2)c2ccccc2)O1.O=C(O)C(=O)O (stereo partly specified)"
  ENDPOINT LABEL: "pKb"
  OBS VALUE: 7.15
- MOLECULE: "COc1cccc(OC)c1OCCNCC1CO[C@H](c2ccccc2)O1.O=C(O)C(=O)O (stereo partly specified)"
  ENDPOINT LABEL: "pKb"
  OBS VALUE: 6.44
- MOLECULE: "O=C(O)C(=O)O.c1ccc(OCCNCC2CO[C@H](c3ccccc3)O2)cc1 (stereo partly specified)"
  ENDPOINT LABEL: "pKb"
  OBS VALUE: 7.09
